Just for reference, PubChem BioAssay (NCI) is where these values come from.

tested on: NCI-H460 lung; assay: NCI-60 one-dose screen, 48 h (100 = growth as untreated, 0 = no growth, -100 = all killed); conditions: 10 µM
Compounds without any hit were thinned out: in the full panel of roughly 83,000, 20% have a hit.
readout_name: growth (%)
Report only the number, with the unit % understood.

CCOC(=O)C(NC(=O)C(Cl)Cl)C(O)c1ccccc1 (stereo not given)
102
COc1ccc(-c2nsc3c2NC(=O)CC3c2ccc(F)cc2)cc1 (stereo not given)
17.2
O=c1oc2cc(OS(=O)(=O)c3ccccc3)ccc2c2c1CCCCC2
28.4
Fc1cc(C(F)(F)F)ccc1-c1cncnc1NC1CCCCCC1
102
O=C(O)c1ccc(P(=O)(O)O)c([N+](=O)[O-])c1
103

## Input Record lookup: for NCI-H460 lung, what growth belongs to COc1cc(-c2nc(-c3nnc(-c4ccccc4Cl)o3)c3ccccn23)cc(OC)c1OC ?
## Output 95.4

## Input Lab note: need growth with NCI-H460 lung for entry CCN1CCC2(CC1)OC(c1ccccc1)C(c1ccccc1)O2 (stereo not given) , please look it up.
## Output 118

## Input What growth appears in the records for this compound with NCI-H460 lung? COc1ccc(-c2nc(-c3nc4ccc(OC)cc4[nH]3)cc3c2[nH]c2ccccc23)cc1
## Output 2.46

## Input # get_value(readout= growth, system= NCI-H460 lung) for CC(=O)n1c(-c2ccc(Cl)c(Cl)c2)cn(-c2ccc(Cl)cc2)c1=O
## Output 3.52

## Input Under NCI-H460 lung: growth value of CN1CCC(CNc2cc(C3(C(=O)Nc4cc(C(=O)Nc5ccc(Cl)c(C(F)(F)F)c5)ccc4F)CC3)ncn2)CC1 ?
## Output 3.98

----------
tested on: RXF 393 renal; test: NCI-60 one-dose screen, 48 h; conditions: 10 µM
The panel holds about 83,000 compounds, 20% with a hit somewhere; the sample as a whole holds those more often. The source made the active and inactive calls. Rule for the calls: active = growth percent below 10; inactive = the rest.
Response enum: active, inactive

c1ccc(CSc2nnc3c4c5c(sc4nc(-c4cccnc4)n23)CCCCCC5)cc1
inactive

## Input Please let me know the test result on file for FC(F)(F)c1ccc2nc(-c3nc(-c4ccccc4)n4ccccc34)[nH]c2c1 .
## Output inactive

## Input Which outcome was entered for the compound CC(C)C[C@H](NC(=O)[C@H](Cc1cccc2ccccc12)NS(=O)(=O)c1cccc2cccnc12)B(O)O in this test?
## Output inactive

## Input # fetch the recorded call for COc1cc(-c2cc(/C=C/C(=O)c3ccc(F)c(F)c3)[nH]n2)cc(OC)c1OC here
## Output inactive

## Input Please share the test call associated with Nc1c(C(=O)Nc2ccccc2)sc2nc3c(cc12)CCCC3 .
## Output active

## Input Could you kindly confirm the outcome this assay logged for Nc1c(C(=O)Nc2cccc(Br)c2)sc2nc3c(cc12)C(O)CCC3 (stereo not given) ?
## Output active

## Input State the result this test recorded for CN(C)CCOc1nc2ccccc2c2c1-c1ccc(Cl)cc1C2=O .
## Output active

## Input Per the assay record, what outcome was assigned to Cn1c(N)c(N=Nc2ccc(S(=O)(=O)Nc3nccs3)cc2)c(=O)n(C)c1=O ?
## Output inactive

## Input Assay outcome for Nc1ccccc1NC(=O)CCCCC(=O)Nc1ccc2c(c1)/C(=C/c1ccc[nH]1)C(=O)N2 : what was it?
## Output inactive

## Input So what was the verdict on CCCCC/C=C/C(=O)CCc1ccc(O)c(OC)c1 in this test?
## Output inactive

----------
system: MDA-MB-435 melanoma; assay: NCI-60 one-dose screen, 48 h; conditions: 10 µM
About 83,000 compounds went through this panel and 20% of them were active in at least one assay; those are over-represented in the sample as a whole. Calls of active or inactive are those of the source. How the source made its calls: active means growth percent below 10; inactive means the rest.
API: response.call in active, inactive

N=C(N)c1ccc(-c2ccc(-c3cccs3)s2)s1
active
COC(=O)c1ccc(=O)oc1
inactive
O=C(/C=C/c1cc2ccccc2[nH]c1=O)c1ccc2c(c1)OCO2
inactive

## Input What classification did O=C1/C(=C/c2ccc([N+](=O)[O-])s2)Oc2ccccc21 end up with in this test?
## Output active

## Input Dear colleague, could you share the recorded outcome for COC(=O)[C@@H]1[C@H](O)[C@H](C)[C@H](O)[C@@](C)(O)/C=C\C=C(C)C(=O)Nc2c(C)c(OC(C)=O)c3c(c2O)C(=O)C(C)=C2OCOC(=C23)C(C)=C[C@@](C)(O)[C@H](O)[C@@H](C)[C@H]1OC(C)=O when you have a moment?
## Output inactive

## Input Outcome logged for Cc1cc(=O)n2nnc3c4ccccc4ccc3n12 in this assay:
## Output inactive

----------
tested on: HCC-2998 colon; test: NCI-60 one-dose screen, 48 h (100 = growth as untreated, 0 = no growth, -100 = all killed); details: 10 µM
This is part of a sample that, as a whole, favours compounds with a hit. Of some 83,000 tested, about 20% had one in any assay. The source made the active and inactive calls. How the source made its calls: active means growth percent below 10; inactive means the rest.
growth reference

Worked examples, 6 compounds total:
NC(=O)SCC(=O)Nc1ccc(S(N)(=O)=O)cc1
102% (inactive)
O=C(Nc1ccncc1)C(=O)c1cn(S(=O)(=O)c2cccc3ccccc23)c2ccccc12
64.8% (inactive)
O=C(Nc1ccccc1)Nc1cccc(-n2cc(-c3ccncc3)c(-c3ccc(O)c(Cl)c3)n2)c1
44.2% (inactive)
CCOC(=O)N1C/C(=C/c2ccc(OC)cc2)C(=O)/C(=C/c2ccc(OC)cc2)C1
-92.5% (active)
COc1cc(Nc2ccnc(NCCNc3ccnc4cc(Cl)ccc34)n2)cc(OC)c1
29.7% (inactive)
Clc1ccc2c(NCCCNc3nccc(Nc4ccc(Br)cc4)n3)ccnc2c1
-91.4% (active)

## Input For the compound shown here, CN(C)CCN1C(=O)c2cccc3cc(N)cc(c23)C1=O , give the reported growth.
## Output 15.4% (inactive)

## Input Quick one: growth for Cc1cccc(NC2=C(C#N)C(=O)NC3(CCCC3)S2)c1 ?
## Output 95.8% (inactive)

## Input Returns the measured growth for the input compound. Input: O=C(Nc1ccncc1)C(=O)c1cn(S(=O)(=O)c2ccc(F)cc2)c2ccccc12
## Output 61.6% (inactive)

## Input Tell me the measured growth of CC(=O)n1c(-c2ccc(Cl)c(Cl)c2)cn(-c2ccc(Cl)cc2)c1=O , please.
## Output 21.6% (inactive)

----------
system: SF-539 CNS; test: NCI-60 one-dose screen, 48 h; conditions: 10 µM
Compounds without any hit were thinned out: in the full panel of roughly 83,000, 20% have a hit. Activity calls are given as the source filed them. The calls were made as follows: active = growth percent below 10; inactive = the rest.
Just give me one of these, please: active, inactive

O=[N+]([O-])c1cccc(-c2ncc(-c3ccc(Cl)cc3Cl)[nH]2)c1
inactive
COc1cc(Nc2ccnc(NCCCNc3ccnc4cc(Cl)ccc34)n2)cc(OC)c1
active
CC/C(C)=C(\C)C(=O)O
inactive
O=C1C(c2ccccc2)C2C=CC(C2)N1O (stereo unspecified)
inactive
COc1ccc(-c2nc3sc(-c4ccccc4)c(-c4ccccc4)n3c2/C=C/C(=O)c2ccccn2)cc1
inactive
CCCCCCc1cc(N=Nc2ccc(S(=O)(=O)Nc3cc(C)nc(C)n3)cc2)c(O)cc1O
inactive
C[C@]12CC[C@@H]3c4ccc(O)cc4C[C@@H](O)[C@H]3[C@@H]1CC[C@@H]2O
inactive
O=C(CNC(=O)OCc1ccccc1)NCC(=O)Oc1ccc([N+](=O)[O-])cc1
inactive

## Input Look up the recorded call for CS(=O)(=O)Nc1ccc(Nc2c3ccccc3nc3cc([N+](=O)[O-])ccc23)cc1 in this test.
## Output inactive

## Input Kindly provide the recorded test outcome for the following molecule: Cc1nc2c(c(=O)[nH]1)OCN(Cc1ccccc1)C2
## Output inactive

## Input Kindly provide the recorded test outcome for the following molecule: N=C(N)c1ccc(-c2ccc(-c3cccs3)o2)cc1
## Output inactive

## Input What outcome does the record of this test show for COc1ccc(-c2nnc(-c3c(-c4ccccc4)nc4ncccn34)o2)cc1OC ?
## Output inactive

## Input I'd appreciate the recorded outcome for CCN1CCC2(CC1)OC(c1ccccc1)C(c1ccccc1)O2 (stereo unspecified) from this test.
## Output inactive

----------
test system: HT29 colon; assay: NCI-60 one-dose screen, 48 h; conditions: 10 µM
About 83,000 compounds went through this panel and 20% of them were active in at least one assay; those are over-represented in the sample as a whole. Active and inactive are the calls of the source. Rule for the calls: active = growth percent below 10; inactive = the rest.
The reply should name one outcome from active, inactive

// below: answered compounds
Oc1[nH]c2cc(Cl)ccc2c1/C=c1/ccc2c(c1)N=C(c1cc(F)cc(F)c1)N=2
active
CCCCC(CCCCCC(CCCC)NCc1ccc2c(c1)OCO2)NCc1ccc2c(c1)OCO2 (centres undefined)
active
CCOC(=O)C(CSC(c1ccccc1)(c1ccccc1)c1ccccc1)NC(=O)C(CSC(c1ccccc1)(c1ccccc1)c1ccccc1)NC(c1ccccc1)(c1ccccc1)c1ccccc1 (centres undefined)
inactive
COc1ccc(-c2csc(NC(=O)CSc3nc(C)c(-c4ccccc4)n3Nc3ccccc3)n2)cc1
inactive
c1ccc(CP(Cc2ccccc2)c2ccccc2)cc1
inactive

## Input Which outcome was assigned to FC(F)(F)c1ccc(-c2cnc(-n3cc(COCCN4CCCCC4)nn3)nc2NC2CCCCCC2)cc1 in this test?
## Output active

## Input Which outcome was entered for the compound O=C(Nc1ccccc1)Nc1cccc(-n2cc(-c3ccncc3)c(-c3ccc(O)c(Cl)c3)n2)c1 in this test?
## Output inactive

## Input Record request — test call for C[C@]12CC[C@@H]3c4ccc(O)cc4C[C@@H](O)[C@H]3[C@@H]1CC[C@@H]2O
## Output inactive

## Input Lab log entry: COc1ccc(Nc2nc3ccc(NC(=O)NC4CCCCC4)cc3[nH]c2=O)cc1 — outcome as called in the assay?
## Output inactive

## Input Recorded test call requested for Cn1c([N+](=O)[O-])cnc1/C=C1\Oc2ccc(Cl)cc2C1=O
## Output active

## Input Just curious, what result did S=c1[nH]ccn1-c1c(Cl)cccc1Cl get here?
## Output inactive

## Input What did this assay record as the result for COc1cccc(-c2cc(-c3cccc(NS(C)(=O)=O)c3)nc(N)c2C#N)c1O ?
## Output inactive

## Input Hi, do you know how N#CSCC1CC(O)(c2ccccc2)CC(c2ccc(Cl)cc2)O1 (centres undefined) came out in this test?
## Output active

## Input Status in this test for COc1ccc(-c2nc3ncccn3c2-c2nnc(-c3ccsc3C)o2)cc1 ?
## Output inactive

## Input What did the test return for COc1ccc(Nc2cc(C)nc(NCCCNc3ccnc4cc(Cl)ccc34)n2)cc1 ?
## Output active

## Input Hi team, can someone confirm the assay call for C[C@@H]1C=C2C(=O)O[C@@H]3CC[C@H](C1)[C@]23O ?
## Output inactive

## Input Query: recorded result category for CC(C)(C)c1ccc(N2CSC(=S)N(c3ccc(C(C)(C)C)cc3)C2)cc1 in this test
## Output inactive

## Input Call for entry COc1cc(CNc2ccccc2C(=O)N2CCN(C(=O)c3cc(-c4cc(OC)c(OC)c(OC)c4)n4nc(-c5ccccc5)cc4n3)CC2)cc(OC)c1OC :
## Output inactive

## Input Hi, sorry to bother you, what did the test record for COc1ccc2c(c1)C(=O)c1c-2c(OCCN(C)C)nc2ccccc12 ?
## Output inactive
